Task for the reader: assign each of the following compounds its reported IC50.
Biological target: partially purified rat brain PKC
Assay: Mixed micellular protein kinase C (PKC) assay
Assay type: biochemical
Details: histone III-S substrate, 23°C, 15 min, 2% DMSO
Answer format: number, then unit.

# map each compound to its IC50
1. COC1C([N+](C)(C)[O-])CC2OC1(C)n1c3ccccc3c3c4c(c5c6ccccc6n2c5c31)C(=O)NC4 (centres unmarked) [Example 1, 4′ N-methyl-N-oxide of staurosporine]
2. COC1C([N+](C)([O-])Cc2ccccc2)CC2OC1(C)n1c3ccccc3c3c4c(c5c6ccccc6n2c5c31)C(=O)NC4 (centres unmarked) [Example 11, 4′-N-benzyl-N-oxide of staurosporine]

1: 3.1 nM; 2: 33 nM

Values were extracted from patent EP0540185A1.
